Measured log10 of Kd, listed per entry for reference.
Test system: T1, Recombinant cynomolgus TfR1, His6-tagged (a.a. 89-760) (cynomolgus, UniProt H9EXL1 89-760 (rhesus entry))
T1 construct: range 89-760; same product number named for FP and SPR; also called Cyno TfR1; Acro Biosystems TFR-C524a
T1 sequence (chain, as listed by the source): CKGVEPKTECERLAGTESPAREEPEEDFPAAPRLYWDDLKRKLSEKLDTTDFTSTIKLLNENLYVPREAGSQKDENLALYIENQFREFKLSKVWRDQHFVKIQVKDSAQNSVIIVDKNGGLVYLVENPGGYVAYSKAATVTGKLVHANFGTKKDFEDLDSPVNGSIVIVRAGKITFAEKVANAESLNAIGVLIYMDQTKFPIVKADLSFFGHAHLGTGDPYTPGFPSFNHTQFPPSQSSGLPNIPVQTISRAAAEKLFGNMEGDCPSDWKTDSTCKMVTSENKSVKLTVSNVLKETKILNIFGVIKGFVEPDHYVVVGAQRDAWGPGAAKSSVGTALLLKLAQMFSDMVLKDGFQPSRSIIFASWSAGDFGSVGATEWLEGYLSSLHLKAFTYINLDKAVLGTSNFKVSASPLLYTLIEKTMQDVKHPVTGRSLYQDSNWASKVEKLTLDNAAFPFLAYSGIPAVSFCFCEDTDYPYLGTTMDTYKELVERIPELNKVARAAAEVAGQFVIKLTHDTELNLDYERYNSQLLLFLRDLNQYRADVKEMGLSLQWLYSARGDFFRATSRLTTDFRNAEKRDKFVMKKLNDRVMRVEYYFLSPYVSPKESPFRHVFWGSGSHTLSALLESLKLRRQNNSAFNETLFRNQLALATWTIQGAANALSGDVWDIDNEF
Test method notes: SPR, TfR1 on chip
Starred links: 1 amine or outer side, 2 acyl side, 3 side chain; linkers in the order of their positions; H or OH if unused. Positions of bridges follow the written chain, without caps; N, C: chain ends. Non-standard residues stand in square brackets, D forms with d. No end group written: not given here. Fluorescein = fluorescein label on the C-terminal Lys side chain; TATB = O=C(C[*:1])N1CN(C(=O)C[*:2])CN(C(=O)C[*:3])C1; 1Nal = N[C@@H](Cc1cccc2ccccc12)C(=O)O; 2Nal = N[C@@H](Cc1ccc2ccccc2c1)C(=O)O; Sar = CNCC(=O)O
Transform log10 | Measure Kd | Unit µM

Below: 4 binders and their reported log10 of Kd.
Binder	log10 of Kd
Ac-N[1Nal]NCSPDAHLGCISYC (linker 4-12-16 via TATB) [BCY18034]	0.32
Ac-NWNCSPDAHLGCISYC (linker 4-12-16 via TATB (inferred)) [BCY17992]	-0.27
Ac-CAPDAHLGCISYC (linker 1-9-13 via TATB (inferred)) [BCY17986]	0.67
Ac-CSPDAHLGCISYC (linker 1-9-13 via TATB) [BCY15891]	0.60

Provide log10 of Kd value for the following binder: Ac-CSPDAHLGCISYCEPW-NH2 (linker 1-9-13 via TATB (inferred)) [BCY17994]
-0.16

Provide log10 of Kd value for the following binder: ACSADAHLGCISYCA[Sar][Sar][Sar][Sar][Sar][Sar]K(Fluorescein) (linker 2-10-14 via TATB) [BCY15771]
0.60

Provide log10 of Kd value for the following binder: ACSPDAALGCISYCA[Sar][Sar][Sar][Sar][Sar][Sar]K(Fluorescein) (linker 2-10-14 via TATB) [BCY15773]
0.41

Provide log10 of Kd value for the following binder: ACSPDAHLGCIS[2Nal]CA (linker 2-10-14 via TATB) [BCY16031]
0.81

Provide log10 of Kd value for the following binder: CPXDAYLGCXSYC (3 Cys on TATB; N-terminal acetyl (Ac); core as printed CP[HyP]DAYLGC[tBuGly]SYC) [BCY17991]
-1.46

Provide log10 of Kd value for the following binder: HTSCSPDAHLGCISYCA (linker 4-12-16 via TATB) [BCY17111]
-0.04

Provide log10 of Kd value for the following binder: WGKSCPIDAHLGCISYCA (linker 5-13-17 via TATB (inferred)) [BCY17116]
-0.32
